Experiment: Half life in male BALB/c mice administered with 9.7 mg/kg, iv
Assay type: ADME, organism-based
Parameters: dose 9.7 mg/kg, route intravenous
Conditions: mouse, in vivo

{"smiles_data": "CCCc1c(OCCCOc2ccc3c(ccn3CC(=O)[O-])c2)ccc2c(C(F)(F)F)noc12.[Na+]", "unit_text": "h", "half-life": 6.9}

====

Listing of entries alongside the reported EC50.
Target: Peroxisome proliferator-activated receptor gamma (Homo sapiens, UniProt P37231)
Sequence (P37231 whole entry): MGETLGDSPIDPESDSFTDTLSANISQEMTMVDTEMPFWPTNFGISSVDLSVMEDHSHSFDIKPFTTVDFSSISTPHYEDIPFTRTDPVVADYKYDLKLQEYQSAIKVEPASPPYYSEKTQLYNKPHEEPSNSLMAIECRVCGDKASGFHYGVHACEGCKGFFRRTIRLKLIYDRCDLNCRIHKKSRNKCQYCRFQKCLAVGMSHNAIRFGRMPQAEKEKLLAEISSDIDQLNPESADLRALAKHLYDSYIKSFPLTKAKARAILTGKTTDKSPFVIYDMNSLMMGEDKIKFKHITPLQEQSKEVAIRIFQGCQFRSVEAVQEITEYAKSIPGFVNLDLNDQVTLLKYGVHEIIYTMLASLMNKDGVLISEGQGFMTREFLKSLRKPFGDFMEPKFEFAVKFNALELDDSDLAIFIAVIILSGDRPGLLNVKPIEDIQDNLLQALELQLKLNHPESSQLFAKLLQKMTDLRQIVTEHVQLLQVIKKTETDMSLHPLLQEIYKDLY

{"compound": "CCCc1c(OCCC(C)CCOc2cccc3c2ccn3CC(=O)O)ccc2c(C(F)(F)F)noc12 (centres undefined)", "limit_operator": ">", "EC50 (nM)": 10000}
{"compound": "CCCc1c(OCCCOc2cccc3c2ccn3CC(=O)O)ccc2cc[nH]c12", "limit_operator": "=", "EC50 (nM)": 1810}
{"compound": "CCCc1c(OCCCCCOc2ccc3c(ccn3CC(=O)O)c2)ccc2c(C(F)(F)F)noc12", "limit_operator": "=", "EC50 (nM)": 1490}
{"compound": "CCCc1c(OCCCOc2cccc3c2ccn3CC(=O)O)ccc2c(C(F)(F)F)noc12", "limit_operator": "=", "EC50 (nM)": 2390}
{"compound": "CCCc1c(OCCCOc2ccc3c(ccn3CC(=O)O)c2)ccc2c(C(=O)C(F)(F)F)c[nH]c12", "limit_operator": ">", "EC50 (nM)": 10000}
{"compound": "CCCc1c(OCCC(C)CCOc2ccc3c(ccn3CC(=O)O)c2)ccc2c(C(F)(F)F)noc12 (centres undefined)", "limit_operator": ">", "EC50 (nM)": 10000}
{"compound": "CCCc1c(OCCOc2ccc3c(ccn3CC(=O)O)c2)ccc2c(C(F)(F)F)noc12", "limit_operator": "=", "EC50 (nM)": 690}
{"compound": "CCCc1c(OCCCOc2cccc3c2ccn3CC(=O)O)ccc2c(-c3ccccc3)coc12", "limit_operator": "=", "EC50 (nM)": 4150}
{"compound": "CCCc1c(OCCCOc2cccc3c2ccn3C(CC)C(=O)O)ccc2c(C(F)(F)F)noc12 (centres undefined)", "limit_operator": ">", "EC50 (nM)": 10000}
{"compound": "CCCc1c(OCCCCCOc2cccc3c2ccn3CC(=O)O)ccc2c(C(F)(F)F)noc12", "limit_operator": ">", "EC50 (nM)": 10000}
{"compound": "CCCc1c(OCCCOc2cccc3c2ccn3CC(=O)O)ccc2cc(-c3ccccc3)[nH]c12", "limit_operator": "=", "EC50 (nM)": 2820}
{"compound": "CCCc1c(OCCCOc2ccc3c(ccn3Cc3nn[nH]n3)c2)ccc2c(C(F)(F)F)noc12", "limit_operator": "=", "EC50 (nM)": 898}
{"compound": "CCCc1c(OCCCCOc2ccc3c(ccn3CC(=O)O)c2)ccc2c(C(F)(F)F)noc12", "limit_operator": "=", "EC50 (nM)": 280}
{"compound": "CCCc1c(OCCCOc2ccc3c(ccn3CCC(=O)O)c2)ccc2c(C(F)(F)F)noc12", "limit_operator": "=", "EC50 (nM)": 1200}
{"compound": "CCCc1c(OCCCOc2ccc3c(ccn3CC(=O)O)c2)ccc2c(C#N)c[nH]c12", "limit_operator": "=", "EC50 (nM)": 9170}
{"compound": "CCCc1c(OCCCOc2cccc3c2ccn3CC(=O)O)ccc2cc(-c3ccccc3)oc12", "limit_operator": ">", "EC50 (nM)": 10000}
{"compound": "CCCc1c(OCCOc2cccc3c2ccn3CC(=O)O)ccc2c(C(F)(F)F)noc12", "limit_operator": ">", "EC50 (nM)": 10000}
{"compound": "CCCc1c(OCCCOc2ccc3ccn(CC(=O)O)c3c2)ccc2c(C(F)(F)F)noc12", "limit_operator": "=", "EC50 (nM)": 1350}
{"compound": "CCCc1c(OCCCOc2cccc3c2ccn3CC(=O)O)ccc2c(-c3ccccc3)noc12", "limit_operator": "=", "EC50 (nM)": 430}

====

Assay: Area under curve (0-24) in male BALB/c mice administered with 35 mg/kg, po
Assay type: ADME, organism-based
Design: dose 35 mg/kg, route oral
Settings: mouse, in vivo

{"smiles_data": "CCCc1c(OCCCOc2ccc3c(ccn3CC(=O)[O-])c2)ccc2c(C(F)(F)F)noc12.[Na+]", "AUC": "652 µg·h/mL"}

====

Values of pEC50 reported for Peroxisome proliferator-activated receptor delta (Homo sapiens) appear below.
pEC50: −log10 of the molar value.

{"smiles_data": "CCCc1c(OCCCOc2ccc3c(ccn3Cc3nn[nH]n3)c2)ccc2c(C(F)(F)F)noc12", "limit_operator": "=", "pEC50": 6.43}
{"smiles_data": "CCCc1c(OCCCOc2cccc3c2ccn3CC(=O)O)ccc2c(-c3ccccc3)coc12", "limit_operator": "=", "pEC50": 5.67}
{"smiles_data": "CCCc1c(OCCCCOc2ccc3c(ccn3CC(=O)O)c2)ccc2c(C(F)(F)F)noc12", "limit_operator": "=", "pEC50": 6.61}
{"smiles_data": "CCCc1c(OCCCCOc2cccc3c2ccn3CC(=O)O)ccc2c(C(F)(F)F)noc12", "limit_operator": "<", "pEC50": 5.00}
{"smiles_data": "CCCc1c(OCCCOc2cccc3c2ccn3CC(=O)O)ccc2c(-c3ccccc3)noc12", "limit_operator": "=", "pEC50": 6.49}

====

Assay: Maximum concentration in male BALB/c mice administered with 35 mg/kg, po
Assay type: ADME, organism-based
Parameters: dose 35 mg/kg, route oral
Settings: mouse, in vivo

{"smiles_data": "CCCc1c(OCCCOc2ccc3c(ccn3CC(=O)[O-])c2)ccc2c(C(F)(F)F)noc12.[Na+]", "unit_text": "µg/mL", "Cmax": 59}

====

Experiment: Area under curve (0-24) in male BALB/c mice administered with 9.7 mg/kg, iv
Type: ADME, organism-based
Design: dose 9.7 mg/kg, route intravenous
Settings: mouse, in vivo

{"smiles_data": "CCCc1c(OCCCOc2ccc3c(ccn3CC(=O)[O-])c2)ccc2c(C(F)(F)F)noc12.[Na+]", "unit_text": "µg·h/mL", "AUC": 181}

====

Target: Peroxisome proliferator-activated receptor gamma (Homo sapiens, UniProt P37231)
pIC50: −log10 of the molar value.
Listing of entries alongside the reported pIC50.

{"smiles_data": "CCCc1c(OCCCOc2cccc3c2ccn3CCC(=O)O)ccc2c(C(F)(F)F)noc12", "assay_system": "Peroxisome proliferator-activated receptor gamma (Homo sapiens, UniProt P37231)", "pIC50": 5.96}
{"smiles_data": "CCCc1c(OCCCOc2cccc3c2ccn3CC(=O)O)ccc2cc[nH]c12", "assay_system": "Peroxisome proliferator-activated receptor gamma (Homo sapiens, UniProt P37231)", "pIC50": 5.32}
{"smiles_data": "CCCc1c(OCCOc2cccc3c2ccn3CC(=O)O)ccc2c(C(F)(F)F)noc12", "assay_system": "Peroxisome proliferator-activated receptor gamma (Homo sapiens, UniProt P37231)", "pIC50": 5.83}
{"smiles_data": "CCCc1c(OCCCCOc2ccc3c(ccn3CC(=O)O)c2)ccc2c(C(F)(F)F)noc12", "assay_system": "Peroxisome proliferator-activated receptor gamma (Homo sapiens, UniProt P37231)", "pIC50": 6.98}
{"smiles_data": "CCCc1c(OCCCOc2cccc3c2ccn3CC(=O)O)ccc2c(-c3ccccc3)noc12", "assay_system": "Peroxisome proliferator-activated receptor gamma (Homo sapiens, UniProt P37231)", "pIC50": 6.90}
{"smiles_data": "CCCc1c(OCCCOc2cccc3c2ccn3CC(=O)O)ccc2c(-c3ccccc3)coc12", "assay_system": "Peroxisome proliferator-activated receptor gamma (Homo sapiens, UniProt P37231)", "pIC50": 5.40}
{"smiles_data": "CCCc1c(OCCCCOc2cccc3c2ccn3CC(=O)O)ccc2c(C(F)(F)F)noc12", "assay_system": "Peroxisome proliferator-activated receptor gamma (Homo sapiens, UniProt P37231)", "pIC50": 6.11}
{"smiles_data": "CCCc1c(OCCCOc2cccc3c2ccn3CC(=O)O)ccc2c(C(F)(F)F)noc12", "assay_system": "Peroxisome proliferator-activated receptor gamma (Homo sapiens, UniProt P37231)", "pIC50": 5.70}
{"smiles_data": "CCCc1c(OCCCOc2ccc3c(ccn3Cc3nn[nH]n3)c2)ccc2c(C(F)(F)F)noc12", "assay_system": "Peroxisome proliferator-activated receptor gamma (Homo sapiens, UniProt P37231)", "pIC50": 5.95}
